Tested on: SF-295
assay-info: NCI tumour cell line growth inhibition, 48 h
Activity calls are given as the source filed them. Cut-off read from the data, not from the text of the source: active = GI50 up to about 1.1 µM and inactive = higher.
parameter: GI50

# molecule, parameter, measured-result
data = [
    ("O=C1C[C@@H](c2ccccc2)NCCCCN(O)CCCN1", "GI50", "> 100 µM (inactive)"),
    ("CCOc1ccc(N/C(=C(/C(Cl)=C(/Cl)N(CC)CC)[N+](=O)[O-])n2nnc3ccccc32)cc1", "GI50", "30.6 µM (inactive)"),
    ("NC(=O)NCCSC1CCCCC1O (stereo not drawn)", "GI50", "> 100 µM (inactive)"),
    ("c1ccc(CCNCc2ccco2)nc1", "GI50", "> 100 µM (inactive)"),
    ("[N-]=[N+]=NI1OC(=O)c2ccccc21", "GI50", "> 100 µM (inactive)"),
    ("COc1ccc(C2C3CCc4ccccc4C3=NN2S(=O)(=O)c2ccc(/C=C/C(=O)O)cc2)cc1 (stereo not drawn)", "GI50", "2.93 µM (inactive)"),
    ("O=C(c1cc2c(C(F)(F)F)onc2c2ccccc12)C(F)(F)F", "GI50", "2.58 µM (inactive)"),
    ("COc1cc(/C=C2/SC(c3ccccc3)N(c3cccc([N+](=O)[O-])c3)C2=O)cc(OC)c1OC (stereo not drawn)", "GI50", "> 100 µM (inactive)"),
]

----------
System: SK-MEL-2
assay-info: NCI tumour cell line growth inhibition, 48 h
Activity calls are given as the source filed them. Rule as the data show it: active = GI50 up to about 1.1 µM and inactive = higher.
parameter: GI50

# compound, parameter, measured-result
measured = [
    ("CC(C)(C)NC1=NC(C(F)(F)F)(C(F)(F)F)NC(=O)N1", "GI50", "65.2 µM (inactive)"),
    ("CN(C)CCC(C#N)(c1ccccc1)c1ccccc1", "GI50", "> 100 µM (inactive)"),
    ("O=c1[nH]c(=O)n(COCc2ccccc2)c2ccsc12", "GI50", "> 100 µM (inactive)"),
    ("COc1ccc([C@H](NC(=O)c2ccccc2)[C@@H](O)C(=O)O[C@H]2C[C@@]3(O)C(OC(=O)c4ccccc4)C4[C@](C)(C(=O)[C@H](OC(C)=O)C(=C2C)C3(C)C)[C@@H](O)C[C@H]2OC[C@@]42OC(C)=O)cc1 (stereo not given in full)", "GI50", "0.00705 µM (active)"),
    ("CN(C)CCCn1cnc2cc(Cl)c(Cl)cc21", "GI50", "> 100 µM (inactive)"),
    ("CC[C@@H]1NC(C(=O)OC)Cc2c1[nH]c1ccccc21 (stereo not given in full)", "GI50", "> 100 µM (inactive)"),
    ("C=C(C(=O)O[C@H]1C(=O)C2=C(C)CCC3C(=C)C(=O)O[C@@H]3C2[C@]1(C)O)C1CC[C@]2(C)CCCC(=C)[C@H]2C1 (stereo not given in full)", "GI50", "8.45 µM (inactive)"),
    ("C=C(CN(CC)CC)C1(c2ccccc2)CC2(CCCC2)C(=O)O1 (stereo not given)", "GI50", "> 100 µM (inactive)"),
    ("Cc1cc(C)c2c(=N)c3ccccc3n(CCCCCCn3c4ccccc4c(=N)c4c(C)cc(C)nc43)c2n1", "GI50", "1.66 µM (inactive)"),
    ("CCOC(=O)Nn1c(C)nnc1-c1ccccc1", "GI50", "> 100 µM (inactive)"),
    ("CC1OC(OC2CC(O)(C(=O)CO)Cc3c(O)c4c(c(O)c32)C(=O)c2ccccc2C4=O)CC(N)C1O (stereo not given)", "GI50", "0.0387 µM (active)"),
    ("Clc1ccccc1-c1nc2cc(C34CC5CC(CC(C5)C3)C4)ccc2[nH]1", "GI50", "15 µM (inactive)"),
    ("COCOC1/C=C/CCCCC(=O)C(C)C#CC1 (stereo not given)", "GI50", "5.81 µM (inactive)"),
    ("C/C(=C\\C(C)COCc1ccccc1)[C@H](COCc1ccccc1)OCc1ccccc1 (stereo not given in full)", "GI50", "> 100 µM (inactive)"),
    ("OC1(c2ccc(Cl)cc2)c2ccc(CN3CCCC3)cc2C2=NCCN21 (stereo not given)", "GI50", "19 µM (inactive)"),
    ("COC(=O)c1cc(Br)c(C(=O)C(Cl)(Cl)Cl)[nH]1", "GI50", "> 100 µM (inactive)"),
    ("Cc1nc(N)nc(N)c1-c1ccc(Cl)c(Cl)c1", "GI50", "30.8 µM (inactive)"),
    ("COc1ccccc1NC(=O)C1=C(C)NC(C)=C(C(=O)Nc2ccccc2OC)C1c1ccc(C(C)C)cc1", "GI50", "> 100 µM (inactive)"),
    ("O=C(O)c1ccccc1Sc1ccc(C=C2NC(=S)N(c3ccccc3)C2=O)s1", "GI50", "22.2 µM (inactive)"),
    ("Nc1nccc(NCC2(CO)CC(CCc3ccccc3)C2)n1 (stereo not given)", "GI50", "14.5 µM (inactive)"),
    ("O=C1CCCC1CC(CN1CCOCC1)Sc1nnnn1-c1ccccc1 (stereo not given)", "GI50", "> 100 µM (inactive)"),
    ("NS(=O)(=O)c1cc(S(N)(=O)=O)c(NC(=O)N(c2ccccc2)c2ccccc2)c(Cl)c1Cl", "GI50", "22.6 µM (inactive)"),
    ("CC(C)OC(=S)Nc1ccc(Cl)c(/C=N/OC(C)(C)C)c1", "GI50", "18.5 µM (inactive)"),
    ("O=C(c1cc2c(C(F)(F)F)onc2c2ccccc12)C(F)(F)F", "GI50", "3.4 µM (inactive)"),
    ("C[C@]12CC[C@H](O)CC1=CC[C@@H]1[C@@H]2CC[C@]2(C)c3nc(Cl)ccc3C[C@@H]12", "GI50", "> 100 µM (inactive)"),
    ("C=CCONC(=O)c1ccc(Cl)cc1", "GI50", "> 100 µM (inactive)"),
    ("O[C@@H]1[C@H](OC2c3ccccc3-c3ccccc32)[C@H](OCc2ccccc2)[C@@H]2OC[C@H]1O2", "GI50", "> 100 µM (inactive)"),
    ("OC(c1cccs1)c1cc2ccccc2s1 (stereo not given)", "GI50", "> 10 µM (inactive)"),
    ("OCC#CCNCl", "GI50", "> 100 µM (inactive)"),
    ("CCCCCCCCCCCC[N+]12CC[N+](C)(CC1)CC2", "GI50", "77.8 µM (inactive)"),
    ("CCCCC1Cc2cc(OC)ccc2-c2n1c1cc(OC)ccc1[n+]2C.CCCCC1Cc2cc(OC)ccc2-c2n1c1ccc(OC)cc1[n+]2C (stereo not given)", "GI50", "2.46 µM (inactive)"),
    ("CCC(C)C1NC(=O)CNC(=O)C2Cc3c([nH]c4cc(O)ccc34)[S+]([O-])CC(NC(=O)CNC1=O)C(=O)NC(CC(=O)O)C(=O)N1CC(O)CC1C(=O)NC(C(C)C(O)CO)C(=O)N2 (stereo not given)", "GI50", "2.08 µM (inactive)"),
    ("O=C(NCc1ccccc1)c1cc2ccc(O)c(O)c2cn1", "GI50", "12.4 µM (inactive)"),
    ("CCCCNC1CCCCC[C@H]1O (stereo not given in full)", "GI50", "> 100 µM (inactive)"),
    ("CC(=O)N1c2ccccc2C(C)(C)OC1C(Cl)(Cl)Cl (stereo not given)", "GI50", "45.1 µM (inactive)"),
    ("COC(=O)C(C(=O)C(=O)Nc1ccc(N)cc1[N+](=O)[O-])c1nc2ccc(Cl)cc2nc1O (stereo not given)", "GI50", "> 100 µM (inactive)"),
    ("CCOc1ccc(N/C(=C(/C(Cl)=C(/Cl)N(CC)CC)[N+](=O)[O-])n2nnc3ccccc32)cc1", "GI50", "28.2 µM (inactive)"),
    ("CCOC(=O)c1nn2c(nc1=O)sc1ccc3ccccc3c12", "GI50", "> 100 µM (inactive)"),
    ("COC(=O)CN(CC1O[C@@H]2OC(C)(C)O[C@@H]2C1NC(C)=O)C(=O)OCc1ccccc1 (stereo not given in full)", "GI50", "> 100 µM (inactive)"),
    ("CC(C)(C)OC(=O)N1CC(CCl)c2ccc(O)cc21 (stereo not given)", "GI50", "1.7 µM (inactive)"),
]

----------
Quick reference: GI50 of the listed items.
System: HCT-15
Non-standard residues stand in square brackets, D forms with d. Residues, ends and D or L forms follow the SMILES beside them. ξ: configuration not given here. *: point of attachment. NMeY = CN[C@@H](Cc1ccc(O)cc1)C(=O)O; Cbz = O=C(OCc1ccccc1)*; ξA = CC(N)C(=O)O

# compound, value-relation-sign, GI50 (µM)
measured = [
    ("O=C1c2ccccc2-c2ccccc2C(=O)C1(Br)Br", "=", 12.4),
    ("Cc1nc(N)nc(N)c1-c1ccc(Cl)c(Cl)c1 [METOPRINE]", "=", 0.145),
    ("C=C(CCOC)CCC1CCCCC(CN(C)C)C1=O (configuration not stated)", ">", 100),
    ("Cn1c(-c2cccs2)cc(-c2cccs2)c1-c1cccs1", "=", 21.8),
    ("COC(=O)C(C(=O)C(=O)Nc1ccc(N)cc1[N+](=O)[O-])c1nc2ccc(Cl)cc2nc1O (configuration not stated)", ">", 100),
    ("CN1C2CC(=O)CC1[C@@H]1OC(c3ccccc3)O[C@H]21 (some centres not stated)", ">", 100),
    ("CCNc1cc2c3c(c1)CCN3CCC2", ">", 10),
    ("CN(C)c1ccc(/C=C2\\N=C(c3ccc([N+](=O)[O-])cc3)OC2=O)cc1", "=", 20),
    ("COc1ccc(/C=c2/[nH]c(=O)/c(=C\\c3ccc(OCc4ccccc4)cn3)[nH]c2=O)cc1", "=", 38.6),
    ("Clc1ccc(CCN[C@H]2CCCC[C@H]2N2CCCC2)cc1Cl", "=", 9.59),
    ("c1c[nH]c(-c2ccc(-c3ccc[nH]3)c3nsnc23)c1", "=", 0.245),
    ("COc1ccc(C[C@@H](C(=O)NCC(N)=O)N(C)C(=O)[C@@H]2CCCN2C(=O)[C@H](CC(C)C)NC(=O)C(C)NC(=O)OCc2ccccc2)cc1 (some centres not stated) (Cbz-[ξA]LP[NMeY](Me)G-NH2)", ">", 100),
]
